# assay.text: conscious rat diuretic screen of Lipschitz (Table I)
# Assay type: in vivo, rat (female Sprague Dawley; male Okamoto-Aoki)
# run.conditions: Rattus norvegicus, po, 30 mg/kg oral; female Sprague Dawley rats; vs control; read-out: K+ Ratio
# Description: With respect to diuretic utility there can be mentioned the conscious rat diuretic screen of Lipschitz, et al. (J. Pharmacol. Exp. Therap. 79, 97-110 (1943)). In this test, dose response assays of diuretic, natruiretic and kaliuretic activity are determined by oral administration of the test substance. The compounds synthesized in Examples I-XI were tested for diuretic […]. The compound of Example I was tested as its monohydrochloride 2-propanolate hydrate, i.e. as C22 […] ClN4 O4 S.HCl. […]
Counter-ions that a name gives are not always drawn.
parameter: response vs control in vivo at 30 mg/kg (%)

> print(dat)
                                   molecule                                parameter  unit.abbreviation  endpoint.result
1  Cl.NS(=O)(=O)c1cc2c(cc1Cl)CN(CCCN1CCN(C(=O)c3ccccc3)CC1)C2=O.O [Example VII, hydrochloride monohydrate]  response vs control in vivo at 30 mg/kg                  %              111
2  NS(=O)(=O)c1cc2c(cc1Cl)CN(CCCN1CCN(c3cccc(Cl)c3)CC1)C2=O [Example II, hydrochloride hemihydrate]  response vs control in vivo at 30 mg/kg                  %              129
3  Cc1ccccc1N1CCN(CCCN2Cc3cc(Cl)c(S(N)(=O)=O)cc3C2=O)CC1 [Example IV]  response vs control in vivo at 30 mg/kg                  %              117
4  COc1ccccc1N1CCN(CCN2Cc3cc(Cl)c(S(N)(=O)=O)cc3C2=O)CC1 [Example III]  response vs control in vivo at 30 mg/kg                  %              116
5  NS(=O)(=O)c1cc2c(cc1Cl)CN(CCCN1CCN(Cc3ccccc3)CC1)C2=O [Example V]  response vs control in vivo at 30 mg/kg                  %              133
6  COc1ccccc1N1CCN(CCCN2Cc3cc(Cl)c(S(N)(=O)=O)cc3C2=O)CC1 [Example I]  response vs control in vivo at 30 mg/kg                  %              106
7  Cl.NS(=O)(=O)c1cc2c(cc1Cl)CN(CCCN1CCN(c3ccccc3)CC1)C2=O.O [Example X, hydrochloride hydrate]  response vs control in vivo at 30 mg/kg                  %              157

Source of measurements: patent US4585773A
